# Test system: NCI-H522 lung
# run_description: NCI tumour cell line growth inhibition, 48 h; in the data active = GI50 below about 0.43 µM; inactive = the rest
Just give me one of these, please: active, inactive

Query string: Record lookup: outcome of this test for `Cn1cc(-c2ccc(-c3cn(C)c4ncccc34)[nH]2)c2cccnc21` ?
Result string: active

Query string: Record lookup: outcome of this test for `N#CCCN1C/C(=C/c2ccccc2)C(=O)/C(=C/c2ccccc2)C1` ?
Result string: inactive

Query string: Record lookup: outcome of this test for `COc1cc(C(=O)/C=C/c2cc(-c3cc(OC)c(OC)c(OC)c3)n[nH]2)cc(OC)c1OC` ?
Result string: inactive

Query string: Record lookup: outcome of this test for NCCSCC(N)C(=O)O (stereo not given) ?
Result string: inactive

Query string: Record lookup: outcome of this test for `Cn1ccnc1C(=O)/C=C/c1ccc(C(=O)Nc2ccccc2F)cc1` ?
Result string: inactive

Query string: Record lookup: outcome of this test for COc1cc(C2c3cc4c(cc3[C@@H](NCCCN3CCCC3=O)C3COC(=O)[C@H]23)OCO4)cc(OC)c1O (stereo not given in full) ?
Result string: inactive

Query string: Record lookup: outcome of this test for O=C1CS/C(=N/S(=O)(=O)c2ccc(N3N=C4c5ccccc5CC4C3c3cccs3)cc2)N(c2ccccc2)C1 (stereo not given) ?
Result string: inactive

Query string: Record lookup: outcome of this test for `COc1ccc(NC(=O)c2sc3nc(C)c(C(=O)/C=C/c4ccccc4)cc3c2N)cc1` ?
Result string: inactive

Query string: Record lookup: outcome of this test for `COC(=O)c1ccc([C@H]2c3[nH]c4ccccc4c3C[C@H](C(=O)OC)N2C(=O)CCl)cc1` ?
Result string: active

Query string: Record lookup: outcome of this test for `Cc1ccc2nc3ccccc3c(NCc3ccccc3)c2c1` ?
Result string: inactive
